# test.description: Toxicity liver stage against HepG2, at 10uM
# Type: cell-based
# Design: test concentration 10 uM, cell line HepG2-A16-CD81EGFP
# condition.description: human, HepG2-A16-CD81EGFP cells; read-out: INHIBITION
property: cytotoxicity at 10 µM (%)
Give just the number in %; leave the unit off.

(Q) # get_value(readout='cytotoxicity at 10 µM', item= COC(=O)CCCC(=O)N(C)CC1Cc2ccccc2CN1C (centres undefined) )
(A) -12.4

(Q) Suppose we examine the compound "Cc1ccc(C)c(C(=O)Nc2ccc(OC3CCN(C)CC3)cc2)c1" ; what cytotoxicity at 10 µM value has been reported?
(A) 8.97

(Q) Fill in the blank: the reported cytotoxicity at 10 µM of "Cc1cc(I)cnc1NC(=O)C(C)(C)C" is ____.
(A) 4.44

(Q) Fill in: cytotoxicity at 10 µM of "O=C(c1cc(Cl)c[nH]1)N(CCCO)Cc1cccnc1" is ___
(A) 7.48

(Q) Which cytotoxicity at 10 µM reading was recorded for the compound CCOC(=O)C(C)NC(=O)CCc1ccc(F)cc1 (centres undefined) ?
(A) -9.92

(Q) Need cytotoxicity at 10 µM of "O=C(NCCN1CCOCC1)c1ccc(-n2ccc3ccccc32)s1" , thanks.
(A) -1.27

(Q) Requested field: cytotoxicity at 10 µM. Item: "COCCOc1ncccc1NCc1nc2ccccc2n1C"
(A) 5.95

(Q) Would you kindly share the measured cytotoxicity at 10 µM for "CCc1nnc2n1CCN(CCC(=O)Nc1sccc1C#N)C2" ?
(A) -23

(Q) Sample "CCc1nccn1CC(=O)N1C[C@@H]2CC[C@H]1CN(C(=O)N(C)C)C2" — what was its cytotoxicity at 10 µM?
(A) -4.67

(Q) Recorded cytotoxicity at 10 µM for CCCN(C)S(=O)(=O)N1CCCC1c1ccco1 (centres undefined) , please?
(A) -8.72

(Q) Which cytotoxicity at 10 µM value is on record for "Cc1cccc(-c2nc(CN3CCn4c(nnc4C4CC4)C3)no2)c1" ?
(A) 3.33

(Q) Return reported cytotoxicity at 10 µM; argument: OC(CN1CCN(Cc2nc(C3CC3)no2)CC1)c1ccccc1 (centres undefined)
(A) -10.9

(Q) Please report the recorded cytotoxicity at 10 µM for Cc1cc(OCC(O)c2nc3c([nH]2)CC(C)(C)CNC3=O)ccc1Cl (centres undefined) .
(A) -1.57

(Q) # input compound: CC(CN1CCOCC1)NC(=O)NCCc1ccc(Cl)s1 (centres undefined) ; wanted: its cytotoxicity at 10 µM
(A) -8.36

(Q) Tell me the measured cytotoxicity at 10 µM of Cc1ccc(CNC(=O)C2CCCCN2C(=O)OC(C)(C)C)cn1 (centres undefined) , please.
(A) -0.408

(Q) Name the recorded cytotoxicity at 10 µM for Cc1nc(C(C)NC(=O)COc2ccc(F)cc2)n[nH]1 (centres undefined) .
(A) 6.39

(Q) Return reported cytotoxicity at 10 µM; argument: "N#Cc1cc2c(nc1SCc1cc(O)nc(O)n1)CCCC2"
(A) -3.94

(Q) Field request: cytotoxicity at 10 µM | item: "Cc1csc2c(N3CCC(NCCc4ccnn4C)CC3)ncnc12"
(A) 0.429

(Q) Field request: cytotoxicity at 10 µM | item: CCC(CC)CN1CCC2(CCCN(c3ncccn3)C2)C1 (centres undefined)
(A) -83.5

(Q) GET /values?readout=cytotoxicity at 10 µM&item= "CC(C)=CCn1ncc(N2CCCCC2)cc1=O"
(A) -9.48

(Q) Item under review: "Nc1cc2c(nn1)CCN(C(=O)c1cccc3c1OCCO3)C2" . Reported cytotoxicity at 10 µM?
(A) -8.72

(Q) What value of measured cytotoxicity at 10 µM is listed for Cc1ccc2c(c1)C1(CC(=O)Nc3[nH]ncc31)C(=O)N2C (centres undefined) ?
(A) -1.6

(Q) Please give the measured cytotoxicity at 10 µM for this compound: "COc1cc(N2CCCn3cnc(COC(C)C)c3C2)ncn1"
(A) -5.3

(Q) What does the record list as cytotoxicity at 10 µM for "CN(C)CC(=O)N1CCc2onc(Cn3cccn3)c2C1" ?
(A) -3.83

(Q) Consider the compound shown here: CN1CC(=O)N(c2ccccc2)CC12CCN(Cc1nccn1C)C2 (centres undefined) What is its recorded cytotoxicity at 10 µM?
(A) -1.17

(Q) // cytotoxicity at 10 µM lookup, key: "CCOc1ccc2[nH]c(=O)c(CN3CCC(O)CC3)cc2c1"
(A) 1.25

(Q) // lookup cytotoxicity at 10 µM for CCCS(=O)(=O)NC(C)c1cccc(-n2cccn2)c1 (centres undefined)
(A) 3.65

(Q) Query: cytotoxicity at 10 µM; subject: c1ccc2oc(N3CCCC4(CCOC4)C3)nc2c1 (centres undefined)
(A) -6.27

(Q) Tell me the measured cytotoxicity at 10 µM of "Cc1cnn(CCNCc2csc(-c3ccc(C(N)=O)cc3)n2)c1" , please.
(A) -7.75

(Q) # input compound: COc1cc(C)nc(N2CCN(C(C)c3nc(C)no3)CC2)n1 (centres undefined) ; wanted: its cytotoxicity at 10 µM
(A) 3.55

(Q) Tell me the measured cytotoxicity at 10 µM of "COCCN(Cc1ccc(C)cc1)Cc1nccn1C" , please.
(A) -63.3

(Q) I am curious: what cytotoxicity at 10 µM value has been reported for "CCNC(=O)CCCC(=O)N1CCc2cc(Cl)cc(Cl)c2C1" ?
(A) -15.1

(Q) So what does the record say about cytotoxicity at 10 µM for "COC(=O)c1cccc(C(=O)NCc2ccco2)n1" ?
(A) 7.44

(Q) Entry under review: "Cc1cc(CN(C)c2nc(-c3ccco3)nc3c2CCN(C)CC3)on1" . Reported cytotoxicity at 10 µM?
(A) 9.34

(Q) Entry Cc1cnn(CC2CN(c3ccc(C#N)cn3)CCO2)c1 (centres undefined) : reported cytotoxicity at 10 µM = ?
(A) -1.26

(Q) I have this compound here, O=C(CN1CC(c2nc(C3CC3)no2)C1)NCC1CCCO1 (centres undefined) , and I need its recorded cytotoxicity at 10 µM.
(A) -6.66

(Q) Need cytotoxicity at 10 µM of "OCCN(Cc1cccnc1)c1ccc(Br)cn1" , thanks.
(A) 21.4

(Q) // lookup cytotoxicity at 10 µM for "O=c1[nH]c(-c2ccncc2)ncc1-c1ccnc(NC2CCCCC2)n1"
(A) -9.24

(Q) # input compound: "COC[C@]1(O)CCN(c2cc(N3CCOCC3)ncn2)CC1(C)C" ; wanted: its cytotoxicity at 10 µM
(A) -3.81

(Q) Bench note: what cytotoxicity at 10 µM did "CCCN(CC(F)(F)F)C(=O)c1cc(F)cc2[nH]cnc12" show?
(A) 3.19

(Q) Give its cytotoxicity at 10 µM value. Item: O=C(C1CCC2(CCN(CC3CC3)CC2)O1)N1CCCC1 (centres undefined)
(A) 1.58

(Q) Could you share which cytotoxicity at 10 µM value was measured for O=S(=O)(CC1CC1)c1ncc(CN2CCSCC2)n1CC1CCCO1 (centres undefined) ?
(A) -1.07

(Q) Reported cytotoxicity at 10 µM for Cc1cn2c(n1)CCC(NC(=O)c1[nH]nc(C)c1Br)C2 (centres undefined) : what is it?
(A) -17.6

(Q) I'd like to know its cytotoxicity at 10 µM. The compound in question is CCC1CN(Cc2nc(C(C)C)no2)CCC(=O)N1Cc1ccccc1 (centres undefined)
(A) 5.08

(Q) Please report the recorded cytotoxicity at 10 µM for "Brc1cccc(C2(CNCc3cc[nH]c3)CCOCC2)c1" .
(A) 8.95

(Q) What cytotoxicity at 10 µM value was documented for this compound, "COC(=O)CNC(=O)N1CCN(c2nc3ccccc3n2C)CC1" ?
(A) -9.46

(Q) cytotoxicity at 10 µM lookup needed for CCSCCC(C)NC(=O)Nc1cccn(C)c1=O (centres undefined) , thanks.
(A) -2.19

(Q) I have this compound here, "Cn1nc(C#N)c2c1CN(C(=O)c1ccco1)CCC2" , and I need its recorded cytotoxicity at 10 µM.
(A) -133

(Q) Given "O=C1CCC2(CCN(CC[C@@H](O)c3ccccc3)CC2)CN1CC1CC1" , state its recorded cytotoxicity at 10 µM.
(A) 4.51

* * *

# test.description: Toxicity liver stage against HepG2, at 10uM
# Type: cell-based
# Design: test concentration 10 uM, cell line HepG2-A16-CD81EGFP
# condition.description: human, HepG2-A16-CD81EGFP cells; read-out: INHIBITION
property: cytotoxicity at 10 µM (%)
Answer format: numeric, % implied, no suffix.

(Q) Entry under review: "CC[C@@H]1N(Cc2ccc(F)cc2)CCC[C@]12CCC(=O)N2CCOC" . Reported cytotoxicity at 10 µM?
(A) 11.5

(Q) So what's the measured cytotoxicity at 10 µM for this one? CN1CCC(c2ncc3c(n2)CCN(C(=O)CC2C=CCC2)C3)CC1 (centres undefined)
(A) 1.68

(Q) Given "Fc1ccccc1Cc1noc(CN2CCC(N3CCSCC3)CC2)n1" , state its recorded cytotoxicity at 10 µM.
(A) -6.47

(Q) # input compound: CN1CC(c2ccccc2)CC12CCN(C(=O)c1cccnc1)CC2 (centres undefined) ; wanted: its cytotoxicity at 10 µM
(A) 10.2

(Q) I am curious: what cytotoxicity at 10 µM value has been reported for c1nc(N2CCCCC2Cn2cncn2)c2ccsc2n1 (centres undefined) ?
(A) -2.49

(Q) // lookup cytotoxicity at 10 µM for "O=C(N[C@@H]1CN(Cc2cccs2)[C@@H]2CCCO[C@@H]21)C1CC1"
(A) 3.63

(Q) Which cytotoxicity at 10 µM value belongs to Cn1c(NCC(O)c2ccc(F)cc2F)c(C#N)c(=O)n(C)c1=O (centres undefined) ?
(A) -10.9

(Q) Endpoint output: cytotoxicity at 10 µM of "CN(Cc1cc2ccccc2o1)S(C)(=O)=O" . Value?
(A) 1.66

(Q) // query cytotoxicity at 10 µM value for entry CN1CC2(CCC(C(=O)O)CC2)Oc2ccccc2C1=O (centres undefined)
(A) 2

(Q) Recorded cytotoxicity at 10 µM for "c1coc(CN2CCCn3c(CN4CCOCC4)nnc3C2)c1" , please?
(A) 4.86

(Q) Which value of cytotoxicity at 10 µM has been reported for "CC(C)NC(=O)CCN1CCC(C(=O)c2cc(F)ccc2F)CC1" in the records?
(A) -25

(Q) Can you look up the measured cytotoxicity at 10 µM of c1ccc(Oc2ccc(CNCC3CNc4ccnn4C3)cn2)cc1 (centres undefined) for me?
(A) -15.6

(Q) What value of measured cytotoxicity at 10 µM is listed for OC1(CN2CCCCC2)CCN(c2cc(C(F)(F)F)ccn2)C1 (centres undefined) ?
(A) -2.22

(Q) Which cytotoxicity at 10 µM value belongs to CC(=O)NCCCSC1CCN(c2ccccc2F)C1=O (centres undefined) ?
(A) -2.45

(Q) Request the reported cytotoxicity at 10 µM associated with "CC(=O)N1CCCc2cc(NC(=O)NCCc3cnn(C)c3)ccc21"
(A) -5.42

(Q) I'd like to know its cytotoxicity at 10 µM. The compound in question is "Cc1ccc(-c2nnc(CN3CC[C@H](CO)[C@@H](O)C3)o2)n1C"
(A) -4.39

(Q) If you can, please state the reported cytotoxicity at 10 µM value of "COCCCN(C)S(=O)(=O)c1ccc(C(F)(F)F)cc1C#N" .
(A) -4.55

(Q) Find the recorded cytotoxicity at 10 µM belonging to C(=C\c1ccccc1)/CNCC1CCc2nncn2C1 (centres undefined) and report it.
(A) 16.8

(Q) Fill blank: measured cytotoxicity at 10 µM of the compound Clc1cccc(C(CNCc2cccnc2)N2CCOCC2)c1 (centres undefined) is ____.
(A) -4.45

(Q) # get_value(readout='cytotoxicity at 10 µM', item= "O=C(CN1CCC(c2ccnn2CCO)CC1)NCC1CCCCC1" )
(A) -0.463

(Q) Reported cytotoxicity at 10 µM, compound "O=C([C@@H]1COC[C@H]2CN(C3CCOCC3)C[C@H]21)N1CCOCC1" : ____
(A) -4.14

(Q) Which cytotoxicity at 10 µM is listed for "O=C(c1cnc(-c2ccco2)s1)N1CCOc2ncccc21" ?
(A) 7.48

(Q) Requested read-out: cytotoxicity at 10 µM. Entry: "Cc1cc(NC(=O)N2CCN(c3nc(C)c(C)s3)CC2)no1"
(A) 3.04

(Q) Fill in: cytotoxicity at 10 µM of "CN(CCN1CCCCC1=O)Cc1cc2cc3c(cc2[nH]c1=O)OCO3" is ___
(A) -6.21
